These data points were gathered from patent US10092648B2.

Listed below: SI-BW, compared to 1559 in % values for each entry.
- Tested on: male C57BL mice
- test description: In vivo stimulation of intestinal growth, 200 nmol/kg (Example 11)
- reported conditions: 200 nmol/kg s.c. once daily for 3 days

{"substance": "H-HGEGSFSDELATI LEALAASDFIAWLIATKITDKKKKKK-NH2 [ZP2423]", "SI-BW, compared to 1559 in % / %": 123}
{"substance": "H-HGEGSFSDELATILEALAAADFISWLIATKITDKKKKKK-NH2 [ZP2411]", "SI-BW, compared to 1559 in % / %": 117}
{"substance": "H-HGEGSFSDELATILEALAAADFIAWLISTKITDKKKKKK-NH2 [ZP2384]", "SI-BW, compared to 1559 in % / %": 128}
{"substance": "H-HGEGSFSDELSTILESLAASDFISWLISTKITDKKKKKK-NH2 [ZP2380]", "SI-BW, compared to 1559 in % / %": 108}
{"substance": "H-HGEGSFSDELSTILEALAASDFISWLISTKITD-NH2 [ZP2398]", "SI-BW, compared to 1559 in % / %": 108}
{"substance": "H-HGEGSFSDELSTILESLAAADFIAWLIATKITDKKKKKK-NH2 [ZP2403]", "SI-BW, compared to 1559 in % / %": 110}
{"substance": "H-HGEGSFSDELLTILELLAASDFISWLISTKITDKKKKKK-NH2 [ZP2394]", "SI-BW, compared to 1559 in % / %": 105}
{"substance": "H-HGEGSFSDELATILESLAAADFISWLIATKITDKKKKKK-NH2 [ZP2413]", "SI-BW, compared to 1559 in % / %": 116}
